Tested on: OVCAR-5
protocolNotes: NCI tumour cell line growth inhibition, 48 h
Calls of active or inactive are those of the source. No stated cut-off is given here; in the data, active = GI50 up to about 1.1 µM and inactive = higher.
Items are presented alongside their recorded GI50.
measurementLabel: GI50

INSERT INTO measurements (molecule, observedvalue) VALUES
  ('O=C(CCCl)NN=C1NCCCCN1', '> 100 µM (inactive)'),
  ('O=C(CC1=Nc2nnc(-c3nnc4n3C(=O)C(CC(=O)c3cccnc3)=N4)n2C1=O)c1cccnc1', '> 100 µM (inactive)'),
  ('Cc1ccc(S(=O)(=O)Nn2c(O)c(C#N)c(-c3ccc(N(C)C)cc3)c(C#N)c2=O)cc1', '21.8 µM (inactive)'),
  ('CCOc1ccc(/N=N/S(=O)(=O)O)cc1', '> 100 µM (inactive)'),
  ('COc1ccc(CC(C)N)cc1 (stereo unspecified) [PARA-METHOXYAMPHETAMINE]', '> 100 µM (inactive)'),
  ('O=C(CCc1nnc(S)[nH]1)NC12CC3CC(CC(C3)C1)C2', '> 100 µM (inactive)');

----------
Test system: SF-539
protocolNotes: NCI tumour cell line growth inhibition, 48 h
Calls of active or inactive are those of the source. No stated cut-off is given here; in the data, active = GI50 up to about 1.1 µM and inactive = higher.
measurementLabel: GI50

INSERT INTO assay_data (compound, observedvalue) VALUES
  ('C=CCSC1=N/C(=C\c2cccs2)C(=O)N1CC=C', '> 100 µM (inactive)'),
  ('N#CCCC1(CCC#N)CCc2ccccc2C1=O', '> 100 µM (inactive)'),
  ('Clc1cc2nc(C3CCCCO3)[nH]c2cc1Cl (centres undefined)', '26.8 µM (inactive)'),
  ('Cc1nc2cc(Cl)c(N)cc2[nH]1', '> 10 µM (inactive)'),
  ('CC(=O)NC(CSC1=C2NC(=O)\C=C/C=C\C=C/C(C)C(O)CC(=O)/C(C)=C\CC(O)/C=C\C(C)C(O)C(C)C=C(C)C(=O)c3c(O)c(C)cc(c3C1=O)C2=O)C(=O)O (centres undefined)', '> 100 µM (inactive)'),
  ('CC(C)(CN1CCCCC1)C(=O)/C=C/c1ccc(/C=C/C(=O)C(C)(C)CN2CCCCC2)cc1', '0.538 µM (active)'),
  ('NC1=NC2(COC(c3ccccc3)(c3ccccc3)c3ccccc3)OC(COC(c3ccccc3)(c3ccccc3)c3ccccc3)C(O)C2O1 (centres undefined)', '71.6 µM (inactive)'),
  ('CCC(/C(=N/NC(=O)C[N+](C)(C)C)c1ccccc1)C1OC(=O)c2ccccc21 (centres undefined)', '> 100 µM (inactive)'),
  ('O=C(/C(=N/Nc1cn[nH]c(=O)c1Cl)c1ccccc1)c1ccccc1', '22.6 µM (inactive)'),
  ('CC1=CCC[C@H]2[C@](C)(CC3=CC(=O)C4SCCSC4C3=O)[C@@H](C)CC[C@]12C (some centres undefined)', '21 µM (inactive)'),
  ('Clc1ccc(Nc2ncco2)cc1Cl', '> 10 µM (inactive)'),
  ('O=C(c1ccccc1)c1cc[n+](C2=C([N-]S(=O)(=O)c3ccccc3)C(=O)c3ccccc3C2=O)cc1', '12.9 µM (inactive)'),
  ('COc1ccccc1/C=C1\CCC(CN2CCOCC2)C1=O (centres undefined)', '15.2 µM (inactive)'),
  ('C=C(c1nc2ccc(Cl)cc2[nH]c1=O)C(O)c1ccc(C(O)C(=O)c2nc3ccc(Cl)cc3[nH]c2=O)cc1 (centres undefined)', '> 100 µM (inactive)'),
  ('COC12C=CC(CC1)C(C)(C)C2OS(C)(=O)=O (centres undefined)', '> 100 µM (inactive)'),
  ('O=C1Oc2ccccc2C(=O)/C1=C/N1C(=O)/C(=C/c2ccc3c(c2)OCO3)SC1=S', '11.5 µM (inactive)'),
  ('CCN(CC)C(=S)N/N=C/c1cc(OC)ccc1O', '6.97 µM (inactive)'),
  ('COc1cc2ccc(C(C)NCC#N)cc2cc1OC (centres undefined)', '> 100 µM (inactive)'),
  ('Cc1cc([N+](=O)[O-])ccc1Sc1c2ccccc2nc2cc(Cl)ccc12', '25.9 µM (inactive)'),
  ('COc1ccc(C2SC(=N)Nc3c2c(C)nn3C(=O)c2ccccc2O)cc1 (centres undefined)', '0.27 µM (active)'),
  ('Cc1ccc2oc3c(c(Br)c(Br)n3C)c(=O)c2c1', '20 µM (inactive)'),
  ('O=C(O)COc1cc(-c2ccccc2F)nc2cc3c(cc12)OCO3', '> 100 µM (inactive)'),
  ('CCC(=O)Nc1cccc(/N=C/c2ccc(OC(=O)/C=C\c3ccccc3)cc2)c1', '14.8 µM (inactive)'),
  ('C=CCSC1=N/C(=C\c2ccccc2)C(=O)N1CC=C', '84.1 µM (inactive)'),
  ('OC(NN=C1CCCC1)(C(F)(F)Cl)C(F)(F)Cl', '> 10 µM (inactive)'),
  ('CC1=C(c2nc3ccccc3s2)C(=O)OC1(C)C', '> 100 µM (inactive)'),
  ('COc1ccc(OC(=O)N2C/C(=C\c3ccccc3)C(=O)/C(=C/c3ccccc3)C2)cc1', '7.82 µM (inactive)'),
  ('OC[C@H](O)[C@@H](OCc1ccccc1)[C@H](NCc1ccccc1)c1cccs1', '> 100 µM (inactive)'),
  ('O=C(NNC(=S)Nc1ccccc1)c1cc(-c2ccccc2)nc2ccccc12', '21.4 µM (inactive)'),
  ('Cn1c2ccccc2c2c(=O)[nH]c(=O)[nH]c21', '> 100 µM (inactive)'),
  ('O=C1C(Cl)=C(N2CCN(c3ncccn3)CC2)C(=O)c2c(O)ccc(O)c21', '1.97 µM (inactive)'),
  ('CSc1ccc(C(=C=C=C(c2ccc(SC)s2)c2ccc(SC)s2)c2ccc(SC)s2)s1', '> 10 µM (inactive)'),
  ('COc1ccc(N2C(=O)C(=O)N(C)C2=O)c2ccccc12', '> 10 µM (inactive)'),
  ('COC(=O)C1=CC(=O)OC1(OO)c1ccccc1 (centres undefined)', '> 100 µM (inactive)'),
  ('FC(F)(F)c1ccc(C2SCc3nc4ccccc4n32)cc1 (centres undefined)', '> 100 µM (inactive)'),
  ('CCN(CC)c1ccc(C(=C2C=CC(=[N+](CC)CC)C=C2)c2ccccc2)cc1', '0.0462 µM (active)'),
  ('COc1cc(CC2CCc3nc(N)nc(N)c3C2)cc(OC)c1OC (centres undefined)', '0.966 µM (active)'),
  ('CN(C)C(=N/O)/C(=N\O)N(C)C', '> 100 µM (inactive)'),
  ('COc1ccccc1C12OC(=O)C1(C)Oc1ccccc1C2=O (centres undefined)', '> 100 µM (inactive)');

----------
System: SNB-19
protocolNotes: NCI tumour cell line growth inhibition, 48 h
Active and inactive are the calls of the source. No stated cut-off is given here; in the data, active = GI50 up to about 1.1 µM and inactive = higher.
Items are presented alongside their recorded GI50.
measurementLabel: GI50

INSERT INTO measurements (compound, targetsystem, observedvalue) VALUES
  ('O=C(c1ccccc1)c1cc[n+](C2=C([N-]S(=O)(=O)c3ccccc3)C(=O)c3ccccc3C2=O)cc1', 'SNB-19', '13.8 µM (inactive)'),
  ('CCCCCCCCCCCC(=O)OCC1OC(n2cc(F)c(=O)[nH]c2=O)C(N)C(OC(=O)CCCCCCCCCCC)C1O (stereo not drawn)', 'SNB-19', '> 100 µM (inactive)'),
  ('O=c1c2cc3ccccc3n2c(=O)c2cc3ccccc3n12', 'SNB-19', '> 100 µM (inactive)'),
  ('CCCCc1c2c([n+]([O-])c3c1CCCC3)CCCC2', 'SNB-19', '44.4 µM (inactive)'),
  ('COC(C)(C)/C=C/c1[nH]c2ccccc2c1CC(=O)NCCc1cn(C(c2ccccc2)(c2ccccc2)c2ccccc2)cn1', 'SNB-19', '7.5 µM (inactive)'),
  ('O=C(NNC(=O)c1ccccc1O)c1ccco1', 'SNB-19', '> 100 µM (inactive)'),
  ('O=P(c1ccccc1)(c1ccccc1)C1CC=C2CCCCCC2C1 (stereo not drawn)', 'SNB-19', '27.6 µM (inactive)'),
  ('Cc1cccc(N2C(=O)C3c4[nH]c5ccccc5c4C4CCC(C(C)(C)C)CC4C3C2=O)c1 (stereo not drawn)', 'SNB-19', '13.2 µM (inactive)'),
  ('N#CC12CC=C(c3ccccc3)N=C1NC(c1ccccc1)=CC2 (stereo not drawn)', 'SNB-19', '90.8 µM (inactive)'),
  ('N#CCCN(CCC#N)c1ccc(/C=N\c2ccc(F)cc2)cc1', 'SNB-19', '> 100 µM (inactive)'),
  ('CN(C)C(=N/O)/C(=N\O)N(C)C', 'SNB-19', '> 100 µM (inactive)'),
  ('CN(C)c1n/c(=N/Cc2ccco2)ss1', 'SNB-19', '60.5 µM (inactive)'),
  ('COc1ccc(-c2nc(N)c(C#N)c3c2CCS(=O)(=O)c2ccc(C)cc2-3)cc1OC', 'SNB-19', '27.5 µM (inactive)');

These data points were gathered from ChEMBL document CHEMBL1201862.
